Documented EC50 across a set of compounds
System: HCV 1b_Huh-Luc/Neo-ET cell line persistently expressing a bicistronic genotype 1b replicon in Huh 7 cells
Protocol summary: HCV replicon assay (luciferase readout)
Type: cell-based
Condition set: Hepatitis C virus, Huh-7, 72 h, read-out: Inhibition of HCV genotype 1b

CC[C@@H](C(=O)N1CCC[C@H]1c1ncc(-c2ccc(C#Cc3ccc(-c4cnc([C@@H]5CCCN5C(=O)[C@H](NC(=O)OC)c5ccccc5)[nH]4)cc3)cc2)[nH]1)c1ccccc1 [Compound 258] ... < 1 nM
COC(=O)N[C@@H](C)C(=O)N1CCC[C@H]1c1ncc(-c2ccc(C#Cc3ccc(-c4cnc([C@@H]5CCCN5C(=O)[C@@H](c5ccccc5)N5CCOC5=O)[nH]4)cc3)cc2)[nH]1 [Compound 1008] ... < 1 nM
COC(=O)N[C@@H](C(=O)N1CCC[C@H]1c1ncc(-c2ccc(C#Cc3ccc(-c4cnc([C@@H]5CCCN5C(=O)[C@H](NC(=O)N5CC[C@H](OC)C5)c5ccccc5)[nH]4)cc3)cc2)[nH]1)c1ccccc1 [Compound 272] ... < 1 nM
CC(C)[C@@H](NC(=O)C1CC1)C(=O)N1CCC[C@H]1c1ncc(C#Cc2ccc(C#Cc3cnc([C@@H]4CCCN4C(=O)[C@H](NC(=O)C4CC4)C(C)C)[nH]3)cc2)[nH]1 [Compound 302] ... > 1000 nM

Lookup: EC50 for COC(=O)N[C@H](C(=O)N1CCC[C@H]1c1ncc(-c2ccc(C#Cc3ccc(-c4cnc([C@@H]5CCCN5C(=O)[C@@H](c5ccccc5)N5CCOC5=O)[nH]4)cc3)cc2)[nH]1)C(C)C [Compound 1007] ?
Found: < 1 nM
